Target: RORγ ligand binding domain (LBD) (Homo sapiens)
Sequence (P51449 269-508 limits assumed): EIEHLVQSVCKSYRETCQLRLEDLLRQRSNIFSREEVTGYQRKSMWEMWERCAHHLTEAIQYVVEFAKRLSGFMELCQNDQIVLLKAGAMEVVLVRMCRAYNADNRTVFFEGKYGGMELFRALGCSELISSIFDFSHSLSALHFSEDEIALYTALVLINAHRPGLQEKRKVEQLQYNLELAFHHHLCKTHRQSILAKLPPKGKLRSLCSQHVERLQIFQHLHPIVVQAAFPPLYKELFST
Assay: TR-FRET Activity Assay (ligand sensing assay, RORγ-LBD / coactivator peptide interaction)
pIC50: −log10 of the molar value.
Lab note: compare pIC50 against 6. Equal or greater, write rule met. Smaller, write rule not met.

[
  {
    "molecule": "CC(C)(C)NS(=O)(=O)c1ccc(-n2nc(C(=O)NC3CCOCC3)nc2CC2CCCCC2)cc1C(C)(C)C",
    "class_label": "rule not met"
  }
]

# next molecule below
-- ask Quick check, pIC50 >= 6? "CC(C)NC(=O)c1cc(CC2CCCCC2)n(-c2cc(C(C)(C)C)cc(C(C)(C)C)c2)n1"
-- reply rule met
